- Measured on: CETP (Homo sapiens, UniProt P11597)
- Sequence (P11597 18-493): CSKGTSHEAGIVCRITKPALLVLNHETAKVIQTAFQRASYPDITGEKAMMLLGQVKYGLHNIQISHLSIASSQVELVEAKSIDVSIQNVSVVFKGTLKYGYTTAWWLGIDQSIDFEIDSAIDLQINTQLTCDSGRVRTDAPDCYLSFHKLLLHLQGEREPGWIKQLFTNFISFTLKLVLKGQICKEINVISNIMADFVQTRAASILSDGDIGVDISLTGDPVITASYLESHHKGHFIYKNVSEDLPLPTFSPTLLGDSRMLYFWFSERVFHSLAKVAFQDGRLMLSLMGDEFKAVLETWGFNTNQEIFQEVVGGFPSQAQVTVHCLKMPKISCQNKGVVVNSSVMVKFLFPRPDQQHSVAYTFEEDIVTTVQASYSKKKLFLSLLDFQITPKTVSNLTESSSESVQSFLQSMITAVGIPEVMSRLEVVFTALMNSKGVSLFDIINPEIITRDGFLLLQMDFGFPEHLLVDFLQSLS
- Assay method text: Assay of CETP inhibition using purified components (reconstituted buffer assay): transfer of [3H]CE from HDL to LDL
- Assay type: biochemical
- Set-up: made in house; host or cells: CHO cells (serum-free conditioned medium)
- Applied conditions: 2 hours at 37°C
pIC50: −log10 of the molar value.
Each entry below carries its recorded pIC50.
Endpoint label: pIC50

{"Compound": "O=C(c1cccc(C(F)(F)F)c1)N(CC(O)C(F)(F)F)c1cccc(F)c1 (centres unmarked) [Example 663]", "Endpoint label": "pIC50", "Readout relation": "=", "Numeric value": 4.00}
{"Compound": "COc1cc(CN(CC(O)C(F)(F)F)c2cccc(OC(F)(F)F)c2)cc(OC)c1 (centres unmarked) [compound 350]", "Endpoint label": "pIC50", "Readout relation": "=", "Numeric value": 4.30}
{"Compound": "OCc1cccc(CN(CC(O)C(F)(F)F)c2cccc(Oc3ccccc3)c2)c1 (centres unmarked) [Example 618]", "Endpoint label": "pIC50", "Readout relation": "=", "Numeric value": 4.00}
{"Compound": "CCCCOC(=O)c1ccc(N(Cc2cccc(OC(F)(F)F)c2)CC(O)C(F)(F)F)cc1 (centres unmarked) [compound 164]", "Endpoint label": "pIC50", "Readout relation": "<", "Numeric value": 4.00}
{"Compound": "OC(CN(Cc1cccc(OC(F)(F)C(F)F)c1)c1cccc(OCc2ccccc2)c1)C(F)(F)F (centres unmarked) [compound 373]", "Endpoint label": "pIC50", "Readout relation": "=", "Numeric value": 6.66}
{"Compound": "OC(CN(Cc1cccc(Oc2cc(Cl)cc(Cl)c2)c1)c1cccc(OC(F)(F)F)c1)C(F)(F)F (centres unmarked) [compound 96]", "Endpoint label": "pIC50", "Readout relation": "=", "Numeric value": 4.30}
{"Compound": "OC(CN(Cc1cccc(OC(F)(F)C(F)F)c1)c1cccc(Oc2ccc(F)c(F)c2)c1)C(F)(F)F (centres unmarked) [compound 638]", "Endpoint label": "pIC50", "Readout relation": "=", "Numeric value": 6.59}
{"Compound": "CC(C)(C)COc1cccc(N(Cc2cccc(OC(F)(F)C(F)F)c2)CC(O)C(F)(F)F)c1 (centres unmarked) [compound 506]", "Endpoint label": "pIC50", "Readout relation": "=", "Numeric value": 6.01}
{"Compound": "COC(=O)c1cccc(CN(CC(O)C(F)(F)F)c2cccc(OC(F)(F)F)c2)c1 (centres unmarked) [compound 325]", "Endpoint label": "pIC50", "Readout relation": "<", "Numeric value": 4.00}
{"Compound": "OC(CF)CN(Cc1cccc(OC(F)(F)F)c1)Cc1cccc(OC(F)(F)F)c1 (centres unmarked) [compound 697]", "Endpoint label": "pIC50", "Readout relation": "=", "Numeric value": 4.26}
{"Compound": "OC(CN(Cc1ccc(-c2ccccc2)cc1)c1ccc(C(F)(F)F)cc1)C(F)(F)F (centres unmarked) [compound 144]", "Endpoint label": "pIC50", "Readout relation": "=", "Numeric value": 4.00}
{"Compound": "CC(C)Oc1cccc(CN(CC(O)C(F)(F)F)c2cccc(Oc3ccc(F)cc3)c2)c1 (centres unmarked) [compound 647]", "Endpoint label": "pIC50", "Readout relation": "=", "Numeric value": 6.28}
{"Compound": "Fc1ccc(Oc2cccc(NCc3cccc(OC(F)(F)C(F)F)c3)c2)cc1 [634C]", "Endpoint label": "pIC50", "Readout relation": "<", "Numeric value": 4.00}
{"Compound": "CC(C)c1ccc(Oc2cccc(N(Cc3cccc(OC(F)(F)C(F)F)c3)CC(O)C(F)(F)F)c2)cc1 (centres unmarked) [compound 250]", "Endpoint label": "pIC50", "Readout relation": "=", "Numeric value": 6.36}
{"Compound": "OC(CN(Cc1cccc(OC(F)(F)C(F)F)c1)c1cccc(Oc2ccc(S)cc2)c1)C(F)(F)F (centres unmarked) [compound 263]", "Endpoint label": "pIC50", "Readout relation": "<", "Numeric value": 4.30}
{"Compound": "O=C(C=Cc1ccccc1)N(CC(O)C(F)(F)F)c1cccc(OC(F)(F)F)c1 (centres unmarked) [compound 351]", "Endpoint label": "pIC50", "Readout relation": "=", "Numeric value": 4.30}
{"Compound": "O=C(c1c(F)c(F)c(F)c(F)c1F)N(CC(O)C(F)(F)F)c1cccc(OC(F)(F)F)c1 (centres unmarked) [compound 343]", "Endpoint label": "pIC50", "Readout relation": "=", "Numeric value": 4.00}
{"Compound": "Cc1ccc(CN(CC(O)C(F)(F)F)c2ccc(C(F)(F)F)cc2)cc1 (centres unmarked) [compound 672]", "Endpoint label": "pIC50", "Readout relation": "=", "Numeric value": 4.00}
{"Compound": "O=C(c1cccc(N(Cc2cccc(OC(F)(F)C(F)F)c2)CC(O)C(F)(F)F)c1)N1CCOCC1 (centres unmarked) [compound 471]", "Endpoint label": "pIC50", "Readout relation": "=", "Numeric value": 4.30}
{"Compound": "OC(CN(Cc1ccccc1)c1cccc(F)c1)C(F)(F)F (centres unmarked) [compound 10]", "Endpoint label": "pIC50", "Readout relation": "<", "Numeric value": 4.00}
{"Compound": "OC(CN(Cc1ccccc1C(F)(F)F)c1cccc(F)c1)C(F)(F)F (centres unmarked) [compound 670]", "Endpoint label": "pIC50", "Readout relation": "<", "Numeric value": 4.00}
{"Compound": "OC(CN(Cc1cccc(OC(F)(F)C(F)F)c1)c1cccc(Oc2nccs2)c1)C(F)(F)F (centres unmarked) [compound 448]", "Endpoint label": "pIC50", "Readout relation": "=", "Numeric value": 5.37}
{"Compound": "Cc1ccc(CN(CC(O)C(F)(F)F)c2cccc(Cl)c2)cc1 (centres unmarked) [compound 34]", "Endpoint label": "pIC50", "Readout relation": "=", "Numeric value": 4.30}
{"Compound": "OC(CN(Cc1cccc(OC(F)(F)C(F)F)c1)c1cccc(Oc2ccc(F)cc2F)c1)C(F)(F)F (centres unmarked) [compound 639]", "Endpoint label": "pIC50", "Readout relation": "=", "Numeric value": 6.68}
{"Compound": "OC(CN(Cc1cccc(OC(F)(F)C(F)F)c1)c1cccc(N2CCC3(CC2)OCCO3)c1)C(F)(F)F (centres unmarked) [compound 317]", "Endpoint label": "pIC50", "Readout relation": "=", "Numeric value": 5.47}
{"Compound": "OC(CN(Cc1cccc(Oc2cccc(C(F)(F)F)c2)c1)c1cccc(F)c1)C(F)(F)F (centres unmarked) [compound 674]", "Endpoint label": "pIC50", "Readout relation": "<", "Numeric value": 4.00}
{"Compound": "OC(CN(Cc1ccc(C(F)(F)F)cc1)c1cccc(Oc2ccc(F)cc2)c1)C(F)(F)F (centres unmarked) [compound 640]", "Endpoint label": "pIC50", "Readout relation": "=", "Numeric value": 5.37}
{"Compound": "OC(CN(Cc1ccc(OC(F)(F)F)cc1)c1cccc(OC(F)(F)F)c1)C(F)(F)F (centres unmarked) [compound 60]", "Endpoint label": "pIC50", "Readout relation": "=", "Numeric value": 5.26}
{"Compound": "O=C(O)c1ccc(COc2cccc(N(Cc3cccc(OC(F)(F)C(F)F)c3)CC(O)C(F)(F)F)c2)cc1 (centres unmarked) [EX-435B]", "Endpoint label": "pIC50", "Readout relation": "<", "Numeric value": 4.30}
{"Compound": "CCOc1cccc(CN(CC(O)C(F)(F)F)c2cccc(Oc3ccc(F)cc3)c2)c1 (centres unmarked) [compound 646]", "Endpoint label": "pIC50", "Readout relation": "=", "Numeric value": 6.11}
{"Compound": "Cc1ccc(CN(CC(O)C(F)(F)F)c2cccc(C(F)(F)F)c2)cc1 (centres unmarked) [compound 45]", "Endpoint label": "pIC50", "Readout relation": "=", "Numeric value": 4.00}
{"Compound": "OC(CN(Cc1cccc(OC(F)(F)C(F)F)c1)c1cccc(OC2CCCC2)c1)C(F)(F)F (centres unmarked) [compound 509]", "Endpoint label": "pIC50", "Readout relation": "=", "Numeric value": 6.38}

----------
Each entry below carries its recorded IC50.
- Measured on: UniProt:P11597
- Assay method text: Assay of CETP inhibition in human plasma: transfer of [3H]CE from [3H]CE-HDL to VLDL and LDL
- Assay type: biochemical
- Design: Blood was obtained from healthy volunteers; from tissue; host or cells: pooled human EDTA plasma from healthy volunteers
- Applied conditions: inhibition of transfer of [3H]CE from [3H]CE-HDL to VLDL and LDL
- Method: ASSAY OF CETP INHIBITION IN HUMAN PLASMA Blood was obtained from healthy volunteers, recruited from the personnel of Monsanto Company, Saint Louis, MO. Blood was collected in tubes containing EDTA (EDTA plasma pool). […] Radioactivity was measured on a microplate scintillation counter (TopCount. Packard, Meriden, CT). The maximum percentage transfer in the control wells (% transfer) was determined using the following equation: % Transfer = ([dpmblank -dpmcontrol ] × 100)/(dpmblank) [formula] […]

{"Compound": "OC(CN(Cc1cccc(OC(F)(F)C(F)F)c1)c1cccc(Oc2ccc(Cl)c(Cl)c2)c1)C(F)(F)F (stereo not drawn) [compound 256]", "Units": "µM", "Readout relation": "=", "IC50": 7.8}
{"Compound": "OC(CN(Cc1cccc(OC(F)(F)C(F)F)c1)c1cccc(Oc2ccc(F)cc2F)c1)C(F)(F)F (stereo not drawn) [compound 639]", "Units": "µM", "Readout relation": "=", "IC50": 5}
{"Compound": "OC(CN(Cc1cccc(SC(F)(F)F)c1)c1cc(Oc2ccc(F)cc2)cc(C(F)(F)F)c1)C(F)(F)F (stereo not drawn) [compound 642]", "Units": "µM", "Readout relation": "=", "IC50": 50}
{"Compound": "OC(CN(Cc1ccc(Cl)s1)c1cccc(OC(F)(F)F)c1)C(F)(F)F (stereo not drawn) [Example 321]", "Units": "µM", "Readout relation": ">", "IC50": 100}
{"Compound": "OC(CN(Cc1cccc(OC(F)(F)C(F)F)c1)c1cccc(N2CCC(Cc3ccccc3)CC2)c1)C(F)(F)F (stereo not drawn) [compound 316]", "Units": "µM", "Readout relation": ">", "IC50": 100}
{"Compound": "Cc1ccc(Oc2cccc(N(Cc3cccc(OC(F)(F)C(F)F)c3)CC(O)C(F)(F)F)c2)cn1 (stereo not drawn) [compound 282]", "Units": "µM", "Readout relation": "=", "IC50": 12}
{"Compound": "OC(CN(Cc1cccc(OC(F)(F)C(F)F)c1)c1cccc(Oc2ccc(OC(F)(F)F)cc2)c1)C(F)(F)F (stereo not drawn) [compound 658]", "Units": "µM", "Readout relation": "=", "IC50": 30}
{"Compound": "OC(CN(Cc1cccc(OC(F)(F)C(F)F)c1)c1cccc(N2CCC3(CC2)OCCO3)c1)C(F)(F)F (stereo not drawn) [compound 317]", "Units": "µM", "Readout relation": ">", "IC50": 100}
{"Compound": "CCCc1ccc(Oc2cccc(N(Cc3cccc(OC(F)(F)C(F)F)c3)CC(O)C(F)(F)F)c2)cc1 (stereo not drawn) [compound 266]", "Units": "µM", "Readout relation": "=", "IC50": 21}
{"Compound": "CCCCOc1cccc(CN(CC(O)C(F)(F)F)c2cccc(Oc3ccc(F)cc3)c2)c1 (stereo not drawn) [compound 649]", "Units": "µM", "Readout relation": ">", "IC50": 100}
{"Compound": "OC(CN(Cc1ccc(OC(F)(F)F)cc1)c1ccccc1)C(F)(F)F (stereo not drawn) [compound 59]", "Units": "µM", "Readout relation": "=", "IC50": 100}
{"Compound": "CCC(C)Oc1cccc(CN(CC(O)C(F)(F)F)c2cccc(Oc3ccc(F)cc3)c2)c1 (stereo not drawn) [compound 650]", "Units": "µM", "Readout relation": "=", "IC50": 30}
{"Compound": "CC(C)c1ccc(Oc2cccc(N(Cc3cccc(OC(F)(F)C(F)F)c3)CC(O)C(F)(F)F)c2)cc1 (stereo not drawn) [compound 250]", "Units": "µM", "Readout relation": "=", "IC50": 31}
{"Compound": "OC(CN(Cc1cccc(OC(F)(F)C(F)F)c1)c1cccc(OCc2ccccc2)c1)C(F)(F)F (stereo not drawn) [compound 373]", "Units": "µM", "Readout relation": "=", "IC50": 12}
{"Compound": "OC(CN(Cc1ccc(OC(F)(F)F)cc1)c1cccc(OC(F)(F)F)c1)C(F)(F)F (stereo not drawn) [compound 60]", "Units": "µM", "Readout relation": "=", "IC50": 120}
